Known pIC50 of a selection of compounds
Target Or System: HLA-DR DRB1*0901 (DR9) (Homo sapiens, UniProt P01903+P01911, A100R/A103E/D57H/D86V/F55Y/F60I/F76Y/I96F/K127E/L162R/M171V/P40D/Q125H/Q99R/R33Q/R42F/S133A/S66N/T210M/V115G/W38K/Y107V/Y59G/Y89S)
Assay Notes: biochemical
Assay type: binding
Experimental Setup: DRB1 *0901
On this scale, pIC50 is minus log10 of a concentration expressed in M (mol/L).

Some compounds with known pIC50 results, for comparison:
{"columns": ["Chem Smiles", "Observed"],
 "data": [
  ["CC[C@H](C)[C@H](NC(=O)[C@H](CC(C)C)NC(=O)[C@H](CCCCN)NC(=O)[C@H](CCCCN)NC(=O)[C@@H](N)Cc1ccc(O)cc1)C(=O)N[C@@H](CCSC)C(=O)N[C@@H](Cc1ccc(O)cc1)C(=O)N[C@@H](CO)C(=O)N[C@@H](C)C(=O)N[C@@H](Cc1c[nH]cn1)C(=O)N[C@@H](CC(=O)O)C(=O)N[C@H](C(=O)N[C@H](C(=O)N[C@H](C(=O)N[C@@H](CO)C(=O)O)C(C)C)[C@@H](C)O)[C@@H](C)O", 6.97],
  ["CC(C)C[C@H](NC(=O)[C@@H](NC(=O)[C@H](CCC(=O)O)NC(=O)[C@H](C)NC(=O)[C@H](C)NC(=O)[C@H](C)NC(=O)[C@H](CCC(N)=O)NC(=O)[C@@H](NC(=O)[C@@H](NC(=O)[C@H](Cc1ccccc1)NC(=O)[C@H](C)NC(=O)[C@H](C)NC(=O)[C@@H](N)C(C)C)[C@@H](C)O)C(C)C)[C@@H](C)O)C(=O)N[C@@H](CO)C(=O)N[C@@H](CCC(=O)O)C(=O)O", 6.90]
]}

Kindly consider the entry below.
stdin: Look up pIC50 for this compound: CC(C)C[C@H](NC(=O)[C@H](Cc1ccccc1)NC(=O)CNC(=O)[C@H](CC(C)C)NC(=O)[C@H](CO)NC(=O)[C@H](CC(C)C)NC(=O)[C@H](CO)NC(=O)[C@H](C)NC(=O)[C@H](C)NC(=O)[C@H](CCCNC(=N)N)NC(=O)[C@H](C)NC(=O)[C@H](CC(C)C)NC(=O)[C@H](CC(C)C)NC(=O)[C@H](CC(C)C)NC(=O)[C@@H]1CCCN1)C(=O)O
stdout: 7.24

---

Target Or System: HLA-A*6801 (Homo sapiens, UniProt P04439, A269V/D185E/E176V/E277Q/E87N/F33Y/G231S/I121M/I166T/I218V/L180W/L300P/L318F/N151K/P208A/P217A/Q86R/R169H/T345S)
Assay Notes: biochemical
Format: binding
No end group written: not given here.
Measured Property: IC50 (nM)
Give your result in nM as a bare value.

{"columns": ["Residues", "Observed"],
 "data": [
  ["KVSEFRWYRR", 30]
]}

stdin: Look up IC50 for this sequence: KLYSKISEYR
stdout: 91

stdin: Look up IC50 for this sequence: SFYGKTLEER
stdout: 42

stdin: Look up IC50 for this sequence: LVYRDDFPK
stdout: 130

stdin: Look up IC50 for this sequence: VSIRVGGQTK
stdout: 290

stdin: Look up IC50 for this sequence: RFYSKVSEFK
stdout: 547

stdin: Look up IC50 for this sequence: TVQPGPGPGK
stdout: 28

stdin: Look up IC50 for this sequence: RFEVYQFAFK
stdout: 2440

stdin: Look up IC50 for this sequence: SVYGETLER
stdout: 17

stdin: Look up IC50 for this sequence: PVRPQVPLR
stdout: 7010

stdin: Look up IC50 for this sequence: FAFTDLTIVY
stdout: 346
